Test: yeast display, Sf9 membrane polyspecificity reagent, FACS + sequencing; frameworks hold sequencing errors
Reported Property: polyreactivity (PSR sort gate)

QVQLVESGGGLVQAGASLRLSCAASGFTFGVYAMVWYRQAPGTVIELVAAISSSGGSTYYADSVKGRFTISRDNAKNTVYLQMNSLKPEDTAVYYCAKDTNSYYKYGYWGQGTQVTVSS :: high polyreactivity
QVQLVESGGGLVQAGCSLRLSWAASGRIFRPNSMGWYRQAPGKERELVAAITSNGGRTYYADSVKGRFTISRDNAKNTVYLQMNSLKPEDTAVYYCAKRVWYYSHKYDYWGQGTQVTVSS :: high polyreactivity
QVQLVESGGGLVQAGGSLRLSFAAYGRTIRWNAMGWYRQEPGKERELVAAITSRGGSTYYADSVKGRFTISRDNAKNTVYLQMNSLKPEDTAVYYCAKQPKPPPVTGYDYWGQGTQVTVSS :: high polyreactivity

---

Test: yeast display, Sf9 membrane polyspecificity reagent, FACS + sequencing; frameworks hold sequencing errors
Reported Property: polyreactivity (PSR sort gate)

Some entries whose results are on file:
QVQLVESGGGLVQAGGSLRISCAASGSIFTINAMGWYRQAPGKERELVARITSVDSTNYADSVKGRFTISRDNAKNNVHLQMNSLKPEDTAVYYCNATFGYPFVDYDDYWGQGTQVTVSS :: low polyreactivity
QVQLVESGGALVQAGGSLRLSCAASGGILQYNAMGWYRQAPGKEREFVAAITTSGGSTYYADSVKGRFTISRDNAKNTVYLQMNSLKPEDTAVYYCAADSWWGIYYSGYDYWGQGSQVTVSS :: low polyreactivity
QVQLVESGGGLVQAGGSLRLSCAASGRTFGSYAMGWYRQAPGKERELVAAITWSGTGTYYADSVKGRFTISRDNAKNTVYLQMNSLKPEDTAVYYCAVYTIGYLAWYQKFDYWGQGTQVTVSS :: high polyreactivity
QVQLVESGGGLVQAGGSLRLSCAASGRTFRVYAMGWYRQAPGKERELVAAITFNGGSTYYADSVKGRFTISRDNAKNTVYLQMNSLKPEDTAVYYCAAATRRSYDHVQMYYWGQGTQVTVSS :: high polyreactivity

Here's the next entry for you.
Notebook: QVQLVESGGGLVQAGGSLRLRCAASGYTFKHYTMGWYREAPGKERELVAAISRRGGRTYYADSVKGRFTISRDNAKNTVYLQMNSLKPEDTAVYYCNRVPRARKGDYWGQGTQVTVSS , polyreactivity (PSR sort gate) read as high polyreactivity

---

Assay: yeast display, Sf9 membrane polyspecificity reagent, FACS + sequencing; frameworks hold sequencing errors
Reported Property: polyreactivity (PSR sort gate)

Some entries whose results are on file:
QVQLQESGGGLVQAGGSLRLSCAASGYISTFSAEMGWYRQAPGKERELVASIAPGCTTSYADSVKGRFTISRDNAKNTVYLQMNSLKPEDTAVYYCAVDYTLPASFGYWGQGTQVTVSS :: high polyreactivity
QVQLVESGGGLVQAGGSLRLSCAASGRIFGRYAMGWYRQAPGKEWELVAAISNGGTTTYADSVKGRFTLSRDNAKNTVYLQMNSLKPEDTAVYYCADDWSYKIYVIQRWYGVDYWGQGTQVTVSS :: low polyreactivity
QVQLVESGGGLVQAGGSLRLSCAASGRTFKIHAMGWYRQATGKERELVAAISTSGGSTYYADSVKGRLTISRDNAKNTVYLQMNSLKPEDTAVYYCNAPVFRVGRPEYDYWGQGTQVTVSS :: high polyreactivity
QVQLVESGGGLVQAGGSLRLTWAASGSTYESNAMGWYRPAPGKERELVAAISSSGGSTYYADSVKGRFTITRDNAKNTVYLQMNSLKPEDTAVYYGNKGGLSDYDYWGQGTQVTVSS :: high polyreactivity

Here's the next entry for you.
Notebook: QVQLVESGGGLVQAGGSLRLSCAASGRIFPYYAMGWYRQAPGKERELVAAITTSGGSTYYADSVKGRFTISRDNAKNTVYLQMNSLKPEDTAVYYCARDLYYYSPYDEYDSWGQGTQVTVSS , polyreactivity (PSR sort gate) read as low polyreactivity

---

Assay: yeast display, Sf9 membrane polyspecificity reagent, FACS + sequencing; frameworks hold sequencing errors
Reported Property: polyreactivity (PSR sort gate)

QVQLVESGGGLVQAGGSLRLSCAASGRTFTGNALGWYRQAPGKERELVAAISQRGGRTNYADSVKGRFTISRDNAKNTVYLQMNSLKPEDTAVYYCAADLGYYYFFGSNYAYDYWGQGTQVNVSS :: low polyreactivity
QVKLVESGGGLVHAGGSLRLICAASGFTFGEYAMVWSRQSPGKERELVAGISWSGGGTYYADSVKGRFTISRDNAKYTVYLQMNSLKPEDTAVYYCAAVLPSTSYKYDYWGQGTQVTVSS :: low polyreactivity

---

Assay: yeast display, Sf9 membrane polyspecificity reagent, FACS + sequencing; frameworks hold sequencing errors
Reported Property: polyreactivity (PSR sort gate)

Some entries whose results are on file:
QVQLVESGGGLVQAGGSLRLSCAASGSIFYENAMGWYRQAPGKERELVAAISRSGGSTYYADSVKGRFTISRDNAKNSVYLQMNSLKPEDTAVYYCAADVYVFIGDYWGQGTQVTVSS :: low polyreactivity
QVQVVESGGGLVQAGGSLRLSCAASGSTFYRYAMGWYRQAPGKERELVAAITRGGGRTYYADSVKGRFTISRDHAKNTVYLQMNSLKPEDSAVYYCNAASPYYDSWGQGTQVTVSS :: high polyreactivity
QVQLVESGGGLVQAGGSLRLSCAASGRIFYRYAMGWYRQAPGKERELVAAISGSVGSTYADSVKGRFTISRDNAKNTVYLQMNSLKPEDTAVYYCARETYRRYGAYDYWGQGTQVTVSS :: low polyreactivity
QVQLVESGGGIVQAGGSLRLTCAASGRIFRSYAMGWYRQAPGKERELVATITWSGTSTYADSVKGRFTISRDNAKNTVYLQMNSLKPEDTAVYYCAAVALFPKYRYYSWGQGTQVTVSS :: high polyreactivity

Notebook: QVQLVESGGGLVQAGGSLRLSCAASGFIFRRYAMGWYRQAPGKERELVAAITWNGGTTYYADSVKGRFTISRDYAKNTVYLQMNRLKPEDTAVYYCAAASRHTGSYRFYYWGQGTQVTVSS , polyreactivity (PSR sort gate) read as high polyreactivity

---

Assay: yeast display, Sf9 membrane polyspecificity reagent, FACS + sequencing; frameworks hold sequencing errors
Reported Property: polyreactivity (PSR sort gate)

Some entries whose results are on file:
QVQLVESGGGLVHAGGSLRLSCAASGSTFNRYAMGWYRQAHGKERELVASISWGGGRTYYADSVKGRFTISRDNEKNTVYLLMNSLKPEDTAVYYCATDRYYRHYEVDYWGQGTQVTVSS :: low polyreactivity
QVQLVESGGGLVQAGGSLRLSCAASGFIFQYYAMGWYRQAPGKERELVAVIRSGGSTYYADSVKGRFTISRDNAKNTVYLQMNSLKPEDTAVYYCARPSRGPPRGYYWGHGTQVTVSS :: high polyreactivity
QVQLVESGGGLVQAGGSLRLSCAASGFTFNSYDMYWVRQAPGKGLEWVSSINTNGGSTYYADSVKGRFTISRDNAKNTVYLQMNSLKPEDTAVYYCAADGDTVGHSYRYDYWGQGTQVTVSS :: low polyreactivity
QVQLVESGGGLVQAGGSLRLSCAASGSIFDSNNMVWYRQAPGKERELVAGISTGGSTNYADSVKGRFTISRDNAKNTVYLQMNSLKPEDTAVYYCNADLGSSYDWGQGTQVTVSS :: low polyreactivity
QVQLQEIVGGLVQAGGSLRLSCAASGNNFDADIMGLYRQAPGKERELVASVTDGGSTNYADSVKGRFTISRDNAKNSVYLQMNILKPEDTAVYYCAAIVYPDILTYFDYDYDYFYWGQGTQVTVGS :: low polyreactivity

Notebook: QVQLVESGGGLVQAGGSLRLSCAASGRIYLGNVMGWYRQAPGKERELVAAISWSAGSTYYSDSVKGRFTISRDNAKITVYLQMNSLKPEDTAVYYCAAVYLWWSYEFDYWGQGTQVTVSS , polyreactivity (PSR sort gate) read as low polyreactivity

Notebook: QVQLVESGGGLVQAGGSLRLSCAASGSIFAYNAMGWYRQAPGKERELVAANSYSGASTYYADSVKGRFTISRDNAKNTVYLQMNSLKPEDTEVYYCAATSRRRGTKGYWQVWPRFDYWGQGTQVTVSS , polyreactivity (PSR sort gate) read as high polyreactivity

Notebook: QVQLVESGGGLVQAGGSLRLSCAASGSTFLQNAMGWYRQAPGKERELVAAISRSGGSTYYADSVKGRFTISRDNAKNTVYLQMNSLKPEDTAVYYCAAGGRRYDDDYWGQGTQVTVSS , polyreactivity (PSR sort gate) read as high polyreactivity

Notebook: QVQLVESGGGLVQAGGSLRLSCAASGRTFVYYAMGWYRQAPGKERELVATISRRGGGTYYADSVKGRFTISRDNEKNTVYLQMNSLKPEDTAVYYCAAAFSYYPRYDYWGQGTQVTVSS , polyreactivity (PSR sort gate) read as high polyreactivity

Notebook: QLQLVESGGGLVQAGGSLRLSCASGLTFYWYAMGWYRQAPGKERELVAAINVRGGSTYYADSVKGRFTISRDNAKNTVYLQMNSLKPEDTAGYDCASYYPGFSYRYDYWGQGSQVTVSS , polyreactivity (PSR sort gate) read as low polyreactivity

Notebook: QVQLVESGGGLVQAGGSLRLSCAASGSIIHTNTMGWYRQAPGKERELVAAISGGSTYYADSVKGRFTISRDNAKNTVYLQMNSLKPEDTAVYYCAAGWSVWYQDFDYWGQGSQVTVSS , polyreactivity (PSR sort gate) read as high polyreactivity

Notebook: QVQLVESGGGLVQAGGSLRLSCAASGSIFQQYAMGWYRQAPGKERELVAAISWGDGSTYYADSVKGRFTISRDNAKNTVYLQKNSLKPEDTAVYYCNAYASAPLWSLEDDYWGQGTQVTVSS , polyreactivity (PSR sort gate) read as low polyreactivity

Notebook: QVQLVDSGGGLVQAGGSLRLSCSASGFTFKYYAMGWYRQAPGKERELVASINWSGGRTSYADSVKGRFTISRDNAKNTVYLQMNSQKPEDTAVYYCARTPAGRGEYWGQGTQVTVSS , polyreactivity (PSR sort gate) read as low polyreactivity

Notebook: QVQLVESGGGLVQAGGSLRLSCAASGRIFSVYTMGWYRQAPGKERELVATISSGGRTNYADSVKGRFTISRDNAKNTVYLQMNSLKPEDTAVYYCAAVPYGFVGYDDYWGQGTQVTVSS , polyreactivity (PSR sort gate) read as low polyreactivity

Notebook: QVHLVESGGGLVQAGGSLRLSCAASGNTLRVYTKGWYRQAPWKERELVAAISRRGSRTYYADTVKGRFTISRENAKYTVYLQMNSLKPEDTAVYYCAAGIPYPDDYWGQGTQVTVSS , polyreactivity (PSR sort gate) read as high polyreactivity
